Each recorded value in this set is attributed to patent US20230027361A1.

- target_entity: METTL3/METTL14 (Homo sapiens, UniProt Q86U44)
- Sequence (Q86U44 whole entry, species assumed): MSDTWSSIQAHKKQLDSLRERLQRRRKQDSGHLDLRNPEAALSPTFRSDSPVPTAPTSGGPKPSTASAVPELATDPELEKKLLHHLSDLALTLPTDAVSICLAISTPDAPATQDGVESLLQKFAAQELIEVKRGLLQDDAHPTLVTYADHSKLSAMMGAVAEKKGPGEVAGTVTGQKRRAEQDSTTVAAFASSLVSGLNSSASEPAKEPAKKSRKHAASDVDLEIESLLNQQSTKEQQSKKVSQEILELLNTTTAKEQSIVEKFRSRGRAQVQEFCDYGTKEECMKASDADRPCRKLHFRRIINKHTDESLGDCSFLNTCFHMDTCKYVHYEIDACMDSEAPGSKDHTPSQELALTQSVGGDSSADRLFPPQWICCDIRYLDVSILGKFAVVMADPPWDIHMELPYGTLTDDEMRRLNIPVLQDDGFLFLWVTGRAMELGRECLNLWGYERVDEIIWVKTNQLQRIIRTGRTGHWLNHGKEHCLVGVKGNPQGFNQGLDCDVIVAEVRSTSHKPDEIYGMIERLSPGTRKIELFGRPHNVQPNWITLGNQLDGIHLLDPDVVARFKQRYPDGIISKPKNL
- Sequence (Q9HCE5 whole entry partner, species assumed): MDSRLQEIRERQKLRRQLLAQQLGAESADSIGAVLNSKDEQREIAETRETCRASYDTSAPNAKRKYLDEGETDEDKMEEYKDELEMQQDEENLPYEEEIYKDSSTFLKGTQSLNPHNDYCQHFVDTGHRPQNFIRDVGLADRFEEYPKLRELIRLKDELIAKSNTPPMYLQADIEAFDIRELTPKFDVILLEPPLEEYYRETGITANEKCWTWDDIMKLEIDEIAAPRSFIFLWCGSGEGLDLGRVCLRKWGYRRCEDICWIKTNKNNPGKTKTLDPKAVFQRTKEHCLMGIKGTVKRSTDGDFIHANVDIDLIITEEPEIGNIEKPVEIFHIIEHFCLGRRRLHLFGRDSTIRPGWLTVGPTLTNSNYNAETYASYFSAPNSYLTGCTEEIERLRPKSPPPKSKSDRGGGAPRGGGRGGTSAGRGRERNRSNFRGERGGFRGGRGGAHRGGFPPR
- test_name: METTL3-14 Standard Enzyme Assay (METTL3 biochemical assay)
- conditions: METTL3 biochemical assay; read-out: METTL3 IC50
pIC50: −log10 of the molar value.
outcome_measure: pIC50

# pIC50 (molecule: `Nc1ncnc2c1ccn2[C@@H]1C[C@H](CCc2ccc3[nH]cnc3c2)[C@@H](O)[C@H]1O` ) is < 6.00

# pIC50 (molecule: `Nc1ncnc2c1ccn2[C@@H]1C[C@H](CCc2ccc3cc(C#Cc4ccccc4)cnc3c2)[C@@H](O)[C@H]1O` ) is < 6.00

# pIC50 (molecule: `Nc1ccc2ccc(OC[C@H]3O[C@@H](n4ccc5c(N)ncnc54)[C@H](O)[C@@H]3O)cc2n1` ) is 7.00 to 8.00

# pIC50 (molecule: `Nc1ccc2ccc(OC[C@H]3C[C@@H](n4ccc5c(N)ncnc54)[C@H](O)[C@@H]3O)cc2n1` ) is 6.00 to 7.00

# pIC50 (molecule: `CNC(=O)Nc1cccc(CC[C@H]2C[C@@H](n3ccc4c(N)ncnc43)[C@H](O)[C@@H]2O)c1` ) is < 6.00

# pIC50 (molecule: `CNc1ccc2ccc(OC[C@H]3O[C@@H](n4cc(CC5CC5)c5c(N)ncnc54)[C@@H](F)[C@@H]3O)cc2n1` ) is > 8.00

# pIC50 (molecule: `Cc1cc2c(N)ncnc2n1[C@@H]1C[C@H](CCc2ccc3ccc(N)nc3c2)[C@@H](O)[C@H]1O` ) is < 6.00

# pIC50 (molecule: `O[C@@H]1[C@@H](CCc2ccc3[nH]ncc3c2)C[C@@H](n2ccc3c(NCCc4ccccc4)ncnc32)[C@@H]1O` ) is < 6.00

# pIC50 (molecule: `CNc1ccc2ccc(OC[C@@H]3C[C@@H](O)[C@H](n4cc(C5CCCC5)c5c(N)ncnc54)O3)cc2n1` ) is 6.00 to 7.00

# pIC50 (molecule: `Cc1cc2c(NCCc3ccccc3)ncnc2n1[C@@H]1C[C@H](CCc2ccc3ccc(N)nc3c2)[C@@H](O)[C@H]1O` ) is < 6.00

# pIC50 (molecule: `CCCNc1ncnc2c1ccn2[C@@H]1C[C@H](CCc2ccc3ccc(N)nc3c2)[C@@H](O)[C@H]1O` ) is < 6.00

# pIC50 (molecule: `CNc1ccc2ccc(OC[C@H]3O[C@@H](n4cc(F)c5c(N)ncnc54)[C@@H](F)[C@@H]3O)cc2n1` ) is > 8.00

# pIC50 (molecule: `Nc1ccc2ccc(CC[C@H]3C[C@@H](n4cc(C5CCCC5)c5c(N)ncnc54)[C@H](O)[C@@H]3O)cc2n1` ) is 7.00 to 8.00

# pIC50 (molecule: `CN(C)c1ccc2ccc(OC[C@H]3O[C@@H](n4ccc5c(N)ncnc54)[C@H](O)[C@@H]3O)cc2n1` ) is 7.00 to 8.00

###

- target_entity: PRMT5-MEP50 (Homo sapiens, UniProt O14744)
- Sequence (O14744 whole entry): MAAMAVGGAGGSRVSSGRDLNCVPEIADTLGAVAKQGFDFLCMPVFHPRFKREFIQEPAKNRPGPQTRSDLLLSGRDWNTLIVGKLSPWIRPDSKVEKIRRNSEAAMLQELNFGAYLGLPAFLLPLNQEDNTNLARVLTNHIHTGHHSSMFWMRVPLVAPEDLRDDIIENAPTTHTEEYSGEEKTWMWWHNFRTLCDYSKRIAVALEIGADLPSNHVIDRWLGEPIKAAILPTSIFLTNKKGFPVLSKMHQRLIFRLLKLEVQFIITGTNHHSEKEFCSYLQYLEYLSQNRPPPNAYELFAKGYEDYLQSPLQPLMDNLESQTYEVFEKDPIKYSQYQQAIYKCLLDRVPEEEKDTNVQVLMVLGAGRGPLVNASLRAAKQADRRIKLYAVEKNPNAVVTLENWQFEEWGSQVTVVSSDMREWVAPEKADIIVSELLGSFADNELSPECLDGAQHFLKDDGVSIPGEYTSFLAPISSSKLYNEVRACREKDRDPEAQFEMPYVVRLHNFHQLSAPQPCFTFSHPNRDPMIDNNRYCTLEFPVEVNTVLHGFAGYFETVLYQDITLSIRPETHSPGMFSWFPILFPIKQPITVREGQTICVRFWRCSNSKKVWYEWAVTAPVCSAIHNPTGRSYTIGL
- Sequence (Q9BQA1 whole entry partner): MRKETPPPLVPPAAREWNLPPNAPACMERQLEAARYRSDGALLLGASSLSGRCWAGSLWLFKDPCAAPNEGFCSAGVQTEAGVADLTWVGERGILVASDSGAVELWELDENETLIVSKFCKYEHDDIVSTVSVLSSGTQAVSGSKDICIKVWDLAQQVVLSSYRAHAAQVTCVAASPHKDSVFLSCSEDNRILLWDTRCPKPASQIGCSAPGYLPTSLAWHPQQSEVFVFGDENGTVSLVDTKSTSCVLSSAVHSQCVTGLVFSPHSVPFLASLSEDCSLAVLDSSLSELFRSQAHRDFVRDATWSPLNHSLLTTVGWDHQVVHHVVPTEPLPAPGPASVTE
- test_name: PRMT5 Assay (PRMT5 biochemical assay)
pIC50: −log10 of the molar value.
Can you tell me pIC50 for the items I'm about to list?

# pIC50 (compound: `CCc1nc2cc(OC[C@H]3O[C@@H](n4cc(-c5ccn(C)n5)c5c(N)ncnc54)[C@@H](F)[C@@H]3O)ccc2[nH]1` ) is < 6.00

# pIC50 (compound: `Nc1ncnc2c1c(-n1cccn1)cn2[C@@H]1O[C@H](COc2ccc3ccc(N4CCC4)nc3c2)[C@@H](O)[C@@H]1F` ) is < 6.00

# pIC50 (compound: `Cn1ccc(-c2cn([C@@H]3O[C@H](COc4ccc5ccc(C(=O)N6CCC6)nc5c4)[C@@H](O)[C@@H]3F)c3ncnc(N)c23)n1` ) is < 6.00

# pIC50 (compound: `CNc1nc2cc(OC[C@H]3O[C@@H](n4cc(-c5ccn(C)n5)c5c(N)ncnc54)[C@@H](F)[C@@H]3O)ccc2o1` ) is < 6.00

# pIC50 (compound: `Cn1ccc(-c2cn([C@@H]3O[C@H](COc4ccc5ccc(NC67CC(C6)C7)nc5c4)[C@@H](O)[C@@H]3F)c3ncnc(N)c23)n1` ) is 6.00 to 7.00

# pIC50 (compound: `Cn1ccc(-c2cn([C@@H]3O[C@H](COc4ccc5ccc(N[C@H]6C[C@H](N)C6)nc5c4)[C@@H](O)[C@@H]3F)c3ncnc(N)c23)n1` ) is 6.00 to 7.00

# pIC50 (compound: `Nc1ncnc2c1c(-c1ncco1)cn2[C@@H]1O[C@H](COc2ccc3ccc(N4CCC4)nc3c2)[C@@H](O)[C@@H]1F` ) is < 6.00

# pIC50 (compound: `CNc1nc2cc(OC[C@H]3O[C@@H](n4cc(-c5ccn(C)n5)c5c(N)ncnc54)[C@@H](F)[C@@H]3O)ccc2[nH]1` ) is 6.00 to 7.00
